Organism: Rattus norvegicus
Assay: Open TG-GATES - Regimen: Daily Repeat
Format: toxicity, organism-based, Sprague-Dawley
Parameters: regimen Daily Repeat, gender Male, age 6 weeks
Settings: in vivo, po, 0 mg/kg, […], tissue Plasma, route gavage, dose level Control, time 14 day
Field: A/G. Provide a value for each of the compounds that follow.
Numbers only.

- COMPOUND: "CC1=C(CC(=O)O)c2cc(F)ccc2/C1=C\\c1ccc([S+](C)[O-])cc1 (configuration not stated)"
  RECORDED_VALUE: 0.9
- COMPOUND: "ClC(Cl)(Cl)Cl [CARBON TETRACHLORIDE]"
  RECORDED_VALUE: 1.4

Could you tell me A/G for each of these compounds? They are listed below.
1. CC[C@H]1[C@@H]2C[C@H]3[C@@H]4N(C)c5ccccc5[C@]45C[C@@H]([C@@H]2[C@H]5O)N3[C@@H]1O
2. OCCOCCN1CCN(C(c2ccccc2)c2ccc(Cl)cc2)CC1 (configuration not stated) [HYDROXYZINE]
3. O=NN(CCCl)C(=O)NC1CCCCC1
4. CCC1(c2ccccc2)C(=O)NC(=O)NC1=O
5. CCc1oc2ccccc2c1C(=O)c1cc(Br)c(O)c(Br)c1

Resp:
[1.9, 0.8, 2, 1.5, 1.8]
